- Test system: SK-OV-3 ovarian
- test.summary: NCI tumour cell line growth inhibition, 48 h
Please go through the items and note down their TGI.

Solved cases below.
compound | assayed.target | TGI
O=C1C=C[C@@]23CC1C(O)C[C@H]2C=Cc1ccccc13 (some centres undefined) | SK-OV-3 ovarian | > 100 µM
CC[C@]1(O)CC2CN(CCc3c([nH]c4ccccc34)[C@@](C(=O)OC)(c3cc4c(cc3OC)N(C)[C@H]3[C@@](O)(C(=O)OC)[C@H](OC(C)=O)[C@]5(CC)C=CCN6CC[C@]43[C@@H]65)C2)C1 (some centres undefined) | SK-OV-3 ovarian | 0.00977 µM
COc1cc2oc(=O)ccc2cc1C1OC(=O)C2OC21C (centres undefined) | SK-OV-3 ovarian | > 100 µM

Task: Reported TGI for O=C(/C=C/c1cccnc1)NCCCCC1CCN(C(=O)c2ccccc2)CC1 : what is it?
Result: > 100 µM

----------
- System: MCF7 breast
- test.summary: NCI tumour cell line growth inhibition, 48 h
*1 amine or outer side, *2 acyl side, *3 side chain or, on linkers, in order; H or OH if unused. Where a SMILES comes first, the peptide text is derived from it. Bridges are numbered along the chain shown (N, C = ends). Roman numbers before positions name the chains, in order. [ ]: non-standard residue; d: D form. Actinocin(9to1) = Cc1c2oc3c(C)ccc(C(=O)[*:1])c3nc-2c(C(=O)[*:2])c(N)c1=O; NMeV = CN[CH](C(=O)O)C(C)C; Sar = CNCC(=O)O
// false (0) strictly below 30 µM in TGI; true (1) otherwise

compound | class
CCN(Cc1cccc(OC)c1)c1ccc(CO)c(Cl)c1 | false (0)
CC(C)(C)N1CCC1C(N)=O (centres undefined) | true (1)
CC(=O)c1cc(S(=O)(=O)c2ccc(O)c(C(C)=O)c2)ccc1O | true (1)
COc1ccc(/C=N/N=C(\N)NO)c(OC)c1OC | true (1)
Cc1ccc(S(=O)(=O)CC2CCCn3c2c(C#N)c2ccccc23)cc1 (centres undefined) | true (1)

Task: Check the entry COP(=O)(OC)C(NC(c1ccccc1)c1ccccc1)c1ccc2c(c1)OCO2 (centres undefined) : does TGI equal or exceed 30 µM?
Result: true (1)

Task: Also check O=C(/C=C/c1cccnc1)NCCCCC1CCN(C(=O)c2ccccc2)CC1
Result: true (1)

Task: What do you get for O=C1NC(=S)N/C1=C\c1ccc(Sc2ccccc2C(=O)O)s1 ?
Result: true (1)

Task: Then this compound: N#C[C@H]1C(=O)C(c2nc3ccccc3[nH]2)S[C@H]1c1ccccc1 (some centres undefined)
Result: true (1)

Task: Now consider COCCN(C(=O)c1ccccc1)C1CCC(=O)c2[nH]c3ccccc3c21 (centres undefined) .
Result: false (0)

Task: Try this compound too: CCOc1ccccc1N=NC1C(=O)N(C(=O)CC(=O)Nc2ccccc2OC)N=C1C (centres undefined)
Result: true (1)

Task: Okay, and CCOP(=O)(OCC)C(NC(c1ccccc1)c1ccccc1)c1ccccc1 (centres undefined) ?
Result: true (1)

Task: And O=C(O)c1cc2ccccc2c(O)c1O ?
Result: false (0)

Task: Same thing, different compound: CSc1nc2c(c(=O)[nH]1)N=C1c3ccccc3C(=O)C1C(c1ccc(F)cc1)N2 (centres undefined)
Result: true (1)

Task: Same question for CC(=O)NCC1OC2COC(c3ccccc3)OC2C2N=C(c3ccccc3)OC12 (centres undefined) please.
Result: true (1)

Task: Could you do the same for Cc1c2oc3c(C)ccc(C(=O)NC4C(=O)NC(Cc5ccc(O)cc5)C(=O)N5CCCC5C(=O)N(C)CC(=O)N(C)C(C(C)C)C(=O)OC4C)c3nc-2c(C(=O)NC2C(=O)NC(Cc3ccc(O)cc3)C(=O)N3CCCC3C(=O)N(C)CC(=O)N(C)C(C(C)C)C(=O)OC2C)c(N)c1=O (centres undefined) (I: TYP[Sar][NMeV] / II: TYP[Sar][NMeV]; ester I:1-I:C, II:1-II:C; linker I:N-II:N via Actinocin(9to1); configuration not given here) , please?
Result: false (0)

Task: Could you do the same for CC[C@]1(O)CC2CN(CCc3c([nH]c4ccccc34)[C@@](C(=O)OC)(c3cc4c(cc3OC)N(C)[C@H]3[C@@](O)(C(=O)OC)[C@H](OC(C)=O)[C@]5(CC)C=CCN6CC[C@]43[C@@H]65)C2)C1 (some centres undefined) , please?
Result: false (0)

----------
- Test system: HT29 colon
- test.summary: NCI tumour cell line growth inhibition, 48 h
Hi there, I'd appreciate the recorded TGI for every entry that follows.

The cases that follow already have their TGI on record.
compound | assayed.target | reported.result
Oc1ccc(/C=N\Nc2ccccn2)c(O)c1 | HT29 colon | > 100 µM
CC(=O)CCCCCCCCCCCC[C@@H]1CC[C@H](C)[C@H](O)N1 | HT29 colon | > 100 µM
Cc1cn(C2CC(SCCO)C(CO)O2)c(=O)[nH]c1=O (stereo unspecified) | HT29 colon | > 100 µM
CC(C)N(C(=O)C12C3C4C5(C#N)C3C1(I)C5C42I)C(C)C (stereo unspecified) | HT29 colon | > 100 µM
Cc1cn(C2CC(F)C(CO)O2)c(=O)[nH]c1=O (stereo unspecified) | HT29 colon | > 100 µM

Please supply TGI for each of the following items, keeping them in order.
1. CC(=O)OC[C@H]1O[C@@H](n2ccc(=O)[nH]c2=O)[C@H](OC(C)=O)[C@@H]1OC(C)=O
2. CCOC(=O)CC(=O)Sc1ccccc1
3. Oc1ccc(Cc2ccc(O)c3ncccc23)c2cccnc12
4. C=C1CC(Cn2cc(Br)c(=O)[nH]c2=O)(c2ccc(Br)cc2)OC1=O (stereo unspecified)
5. O=C(/C=C/c1cccnc1)NCCCCC1CCN(C(=O)c2ccccc2)CC1
6. O=c1oc2ccccc2c(O)c1C(c1ccc(O)cc1)c1c(O)c2ccccc2oc1=O

Result:
1: > 100 µM; 2: 48.7 µM; 3: > 100 µM; 4: 7.89 µM; 5: > 100 µM; 6: > 100 µM

----------
- Test system: KM12 colon
- test.summary: NCI tumour cell line growth inhibition, 48 h
measured.property: TGI

Would you please look over these solved cases?
compound | assayed.target | reported.result
C/C(=N\NC(=O)c1ccncc1)c1cccc(C(F)(F)F)c1 | KM12 colon | > 10 µM
COc1ccc(C[C@H]2COC(=O)[C@@H]2Cc2ccccc2)cc1OC | KM12 colon | > 100 µM
COCCN(C(=O)c1ccccc1)C1CCC(=O)c2[nH]c3ccccc3c21 (stereo not given) | KM12 colon | 21.9 µM
CC(O)/C=C/C(CCC(C)CO)C(C)C (stereo not given) | KM12 colon | > 100 µM
CC(CN(CP(=O)([O-])[O-])CP(=O)([O-])[O-])N(CP(=O)([O-])[O-])CP(=O)([O-])[O-].N.N.[Pt+2] (stereo not given) | KM12 colon | > 100 µM
Cc1c(/C=N/NS(=O)(=O)c2ccccc2)no[n+]1[O-] | KM12 colon | > 100 µM

Can you give me TGI for all of these, one by one?
1. CN(c1ccc(Cl)cc1)S(=O)(=O)c1ccccc1
2. O=C1NC(=S)NC(=O)C1=Cc1cc2c(cc1[N+](=O)[O-])OCO2

Result:
1. > 100 µM
2. > 100 µM

Please state, for each entry, its recorded TGI.
1. COc1ccc(C(=O)/C=C/c2ccc(OCCCOc3ccc(/C=C/C(=O)c4ccc(OC)c(OC)c4)cc3)cc2)cc1OC
2. O=C(/C=C/c1ccc(OCC(=O)N2CCN(c3ccccc3)CC2)cc1)c1ccc(Cl)cc1

Result:
1: > 100 µM; 2: > 100 µM

----------
- Tested on: SK-MEL-5 melanoma
- test.summary: NCI tumour cell line growth inhibition, 48 h
Give TGI for every item shown.

State recorded TGI for all listed molecules.
1. C=C(C)[C@@H]1CC[C@]2(C(=O)OC3OC(COC4OC(CO)C(OC5OC(C)C(O)C(O)C5O)C(O)C4O)C(O)C(O)C3O)CC[C@]3(C)[C@H](CC[C@@H]4[C@@]5(C)CC[C@H](O)[C@@](C)(CO)[C@@H]5CC[C@]43C)[C@@H]12 (some centres undefined)
2. Cc1cccc(-c2nc3c(C(=O)NCCN(C)C)cccc3[nH]2)c1
3. COC(=O)C1CC(C(=O)OC)c2nc3cc(C)ccc3nc21 (centres undefined)

Result:
1: > 8.46 µM; 2: 3 µM; 3: > 100 µM

Look up TGI for the entries below, preserving their order.
1. CC(=O)NCC1OC2COC(c3ccccc3)OC2C2N=C(c3ccccc3)OC12 (centres undefined)
2. O=[N+]([O-])c1cccc([N+](=O)[O-])c1Cl
3. COc1ccc2c3c([nH]c2c1)-c1nc2ccccc2c(=O)n1CC3
4. O=C1/C(=C/c2cccs2)N=C(c2ccccc2)N1c1nc2ccccc2s1

Result:
1. > 100 µM
2. 32.7 µM
3. > 25 µM
4. > 100 µM

Record TGI per entry; entries follow.
1. Cc1c(/C=N/NS(=O)(=O)c2ccccc2)no[n+]1[O-]
2. C/C(=N/S(=O)(=O)c1ccc(Cl)c(Cl)c1)OCC(C)(C)C

Result:
> 100 µM
> 100 µM

Origin of values: PubChem BioAssay (NCI)
